Tested on: morningglory
Assay: Test A pre-/postemergence greenhouse test
Type: in vivo, Ipomoea spp.
Settings: Postemergence, 500 g ai/ha; 0 to 100 scale, 0 is no effect, 100 is complete control
Readout name: Morningglory plant response rating
No unit in the answer, please; the number alone is enough.

[
  {
    "Compound": "[O-][n+]1ccccc1[S+]([O-])C(Cl)c1c(C(F)(F)F)nn(CC(F)(F)F)c1Cl (centres unmarked)",
    "Morningglory plant response rating": 40
  },
  {
    "Compound": "Cn1nc(C(F)(F)C(F)(F)F)c(C[S+]([O-])c2ccc(Cl)c[n+]2[O-])c1OCC(F)(F)F (centres unmarked)",
    "Morningglory plant response rating": 100
  },
  {
    "Compound": "Cn1nc(C(F)(F)F)c(C[S+]([O-])c2ccc(Cl)c[n+]2[O-])c1OC(F)F (centres unmarked)",
    "Morningglory plant response rating": 90
  },
  {
    "Compound": "CCc1cc[n+]([O-])c(S(=O)(=O)Cc2c(C(F)(F)F)nn(C)c2OCC(F)(F)F)c1",
    "Morningglory plant response rating": 60
  },
  {
    "Compound": "C#CCOc1c(C[S+]([O-])c2cccc[n+]2[O-])c(C(F)(F)F)nn1C (centres unmarked)",
    "Morningglory plant response rating": 90
  },
  {
    "Compound": "CC(c1c(C(F)(F)F)nn(C)c1OC(F)F)S(=O)(=O)c1cccc[n+]1[O-] (centres unmarked)",
    "Morningglory plant response rating": 90
  },
  {
    "Compound": "Cn1nc(C(F)(F)F)c(CS(=O)(=O)c2ccc(Cl)c[n+]2[O-])c1OCC(F)(F)C(F)(F)F",
    "Morningglory plant response rating": 0
  }
]

--- query ---
Enquiry: Give its Morningglory plant response rating value. Item: Cn1nc(C(F)(F)F)c(CS(=O)(=O)c2cc(Br)cc[n+]2[O-])c1Cl
Return: 10

###

Test system: prickly sida
Experiment: Test F preemergence test
Format: in vivo, Sida spinosa
Conditions: 62 g ai/ha, Preemergence; scale 0 to 100
Description: Seeds of plant species selected from bermudagrass (Cynodon dactylon), Surinam grass (Brachiaria decumbens), large crabgrass (Digitaria sanguinalis), green foxtail (Setaria viridis), goosegrass (Eleusine indica), johnsongrass (Sorghum halepense), kochia (Kochia scoparia), pitted morningglory (Ipomoea lacunosa), purple nutsedge (Cyperus rotundus), common ragweed (Ambrosia elation), mustard (Brassica nigra), guineagrass (Panicum maximum), […] […]
Readout name: Prickly Sida plant response rating

Example cases with answers are listed next.
[
  {
    "Compound": "Cc1cc[n+]([O-])c([S+]([O-])Cc2c(C(F)(F)F)nn(C)c2Cl)c1 (racemic) [Compound 20]",
    "Prickly Sida plant response rating": 60
  },
  {
    "Compound": "Cc1cc[n+]([O-])c(S(=O)(=O)C(Cl)c2c(C(F)(F)F)nn(C)c2OCC(F)(F)F)c1 (racemic) [Compound 37]",
    "Prickly Sida plant response rating": 35
  },
  {
    "Compound": "CC(c1c(C(F)(F)F)nn(C)c1OCC(F)(F)F)S(=O)(=O)c1cccc[n+]1[O-] (racemic) [Compound 33]",
    "Prickly Sida plant response rating": 90
  }
]

Enquiry: Query (compound): CC(c1c(C(F)(F)F)nn(C)c1OC(F)F)S(=O)(=O)c1cccc[n+]1[O-] (centres unmarked) [Compound 5] ; field requested: Prickly Sida plant response rating
Return: 100

Enquiry: Find the recorded Prickly Sida plant response rating belonging to Cn1nc(C(F)(F)F)c(C[S+]([O-])c2cccc[n+]2[O-])c1OCC(F)(F)F (racemic) [Compound 28] and report it.
Return: 100
